# method.description: physchem
# run.parameters: water, 25 °C
observable: solubility (µg/mL)
Express the result in µg/mL but write the number alone.

Request: What solubility value was documented for this molecule, COc1cc2c(Nc3ccc(Br)cc3F)ncnc2cc1OCC1CCN(C)CC1 ?
Result: 33
